# System: MDA-MB-435
# assay-info: Growth inhibition of human MDA-MB-435 cells at 10 uM after 48 hrs by coulter counter analysis
# Type: functional
# condition-details: MDA-MB-435, 48 h, read-out: GI
property-label: inhibition of growth at 10 µM

Some solved cases for reference:
> print(dat)
                                    compound                 property.label  obs.value
 1  Cc1csc(NC(=O)C(C)N2CCN(c3ccccc3)CC2)n1 (centres undefined)  inhibition of growth at 10 µM      < 10%
 2              O=C(CCCl)Nc1nc(-c2ccccc2)cs1  inhibition of growth at 10 µM      68.2%
 3       Cc1cnc(NC(=O)CN2CCN(c3ccccc3)CC2)s1  inhibition of growth at 10 µM      < 10%
 4  O=C(CN1CCN(c2ccccc2)CC1)Nc1nc(-c2ccccc2)cs1  inhibition of growth at 10 µM      < 10%
 5  Cc1csc(NC(=O)C(C)N2CCN(C)CC2)n1 (centres undefined)  inhibition of growth at 10 µM      11.2%
 6  CCOC(=O)c1sc(NC(=O)CCN2CCN(c3ccccc3)CC2)nc1C  inhibition of growth at 10 µM      < 10%
 7  CCOC(=O)c1sc(NC(=O)C(C)N(CC)CC)nc1C (centres undefined)  inhibition of growth at 10 µM      < 10%
 8  CCOC(=O)c1sc(NC(=O)C(C)N2CCCCC2)nc1C (centres undefined)  inhibition of growth at 10 µM      < 10%
 9     CN1CCN(CCC(=O)Nc2nc(-c3ccccc3)cs2)CC1  inhibition of growth at 10 µM      < 10%
10     CCOC(=O)c1sc(NC(=O)CCN2CCN(C)CC2)nc1C  inhibition of growth at 10 µM      < 10%

Data request: Write down measured inhibition of growth at 10 µM (MDA-MB-435) for this compound. CCOC(=O)c1sc(NC(=O)C(C)N2CCN(C)CC2)nc1C (centres undefined)
Data returned: < 10%

Data request: Under MDA-MB-435, report inhibition of growth at 10 µM for CC(C(=O)Nc1nccs1)N1CCN(c2ccccc2)CC1 (centres undefined)
Data returned: < 10%

Data request: Check MDA-MB-435 data and give inhibition of growth at 10 µM for CC(C(=O)Nc1nccs1)N1CCN(C)CC1 (centres undefined) .
Data returned: < 10%
